test system: Mus musculus; assay: Analgesic activity in Swiss albino mouse model assessed as reduction of acetic acid-induced writhes at 30 mg/kg, po administered 30 mins prior to acetic acid challenge measured after 5 mins for 10 mins relative to vehicle-treated control; format: functional; set-up: scale not given: the % may be the effect or the level left
RECORDED ENDPOINT: Activity (%)
Numbers only, in %.

Worked cases, answers included:
- SMILES REPRESENTATION: "CCCNC(=O)Cc1cc(-c2ccc(S(C)(=O)=O)cc2)n(-c2cccc(F)c2)c1C"
  Activity [%]: 9.9
- SMILES REPRESENTATION: "CCOC(=O)Cc1cc(-c2ccc(S(N)(=O)=O)cc2)n(-c2cccc(F)c2)c1C"
  Activity [%]: 33.5
- SMILES REPRESENTATION: "Cc1c(CC(=O)NC(C)C)cc(-c2ccc(S(N)(=O)=O)cc2)n1-c1cccc(F)c1"
  Activity [%]: 31.6

For each of the molecules below, state Activity.
1. CCCNC(=O)Cc1cc(-c2ccc(S(N)(=O)=O)cc2)n(-c2ccc(F)cc2)c1C
2. Cc1c(CC(=O)NC(C)C)cc(-c2ccc(S(C)(=O)=O)cc2)n1-c1ccc(F)cc1
3. Cc1c(CC(=O)NC(C)C)cc(-c2ccc(S(C)(=O)=O)cc2)n1-c1cccc(F)c1
4. CCCNC(=O)Cc1cc(-c2ccc(S(N)(=O)=O)cc2)n(-c2cccc(F)c2)c1C
5. Cc1c(CC(=O)NC(C)C)cc(-c2ccc(S(N)(=O)=O)cc2)n1-c1ccc(F)cc1

**A:**
1. 39.1
2. 48.7
3. 25.3
4. 12.2
5. 43.7

----------
target: Prostaglandin G/H synthase 2 (Homo sapiens); settings: at 10 µM
Description: Inhibition of human recombinant COX2 using PGEH2 as substrate at 10 uM after 10 mins by EIA
RECORDED ENDPOINT: inhibition

- SMILES REPRESENTATION: "Cc1c(CC(=O)NC(C)C)cc(-c2ccc(S(C)(=O)=O)cc2)n1-c1cccc(F)c1"
  VALUE OBSERVED: "74%"
- SMILES REPRESENTATION: "Cc1c(CC(=O)NC(C)C)cc(-c2ccc(S(N)(=O)=O)cc2)n1-c1ccc(F)cc1"
  VALUE OBSERVED: "48%"

For every item in the list below, what is its measured inhibition?
1. Cc1c(CC(=O)O)cc(-c2ccc(S(N)(=O)=O)cc2)n1-c1ccc(F)cc1
2. Cc1c(CC(=O)NC(C)C)cc(-c2ccc(S(N)(=O)=O)cc2)n1-c1cccc(F)c1
3. CCOC(=O)Cc1cc(-c2ccc(S(N)(=O)=O)cc2)n(-c2cccc(F)c2)c1C
4. Cc1c(CC(=O)O)cc(-c2ccc(S(N)(=O)=O)cc2)n1-c1cccc(F)c1

**A:**
1: 65%; 2: 49%; 3: 89%; 4: 65%

----------
Molecular target: Prostaglandin G/H synthase 2 (Homo sapiens) (UniProt P35354);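 note: recombinant enzyme with PGEH2 as substrate, 10 min incubation, product read out by enzyme immunoassay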
Sequence (whole entry): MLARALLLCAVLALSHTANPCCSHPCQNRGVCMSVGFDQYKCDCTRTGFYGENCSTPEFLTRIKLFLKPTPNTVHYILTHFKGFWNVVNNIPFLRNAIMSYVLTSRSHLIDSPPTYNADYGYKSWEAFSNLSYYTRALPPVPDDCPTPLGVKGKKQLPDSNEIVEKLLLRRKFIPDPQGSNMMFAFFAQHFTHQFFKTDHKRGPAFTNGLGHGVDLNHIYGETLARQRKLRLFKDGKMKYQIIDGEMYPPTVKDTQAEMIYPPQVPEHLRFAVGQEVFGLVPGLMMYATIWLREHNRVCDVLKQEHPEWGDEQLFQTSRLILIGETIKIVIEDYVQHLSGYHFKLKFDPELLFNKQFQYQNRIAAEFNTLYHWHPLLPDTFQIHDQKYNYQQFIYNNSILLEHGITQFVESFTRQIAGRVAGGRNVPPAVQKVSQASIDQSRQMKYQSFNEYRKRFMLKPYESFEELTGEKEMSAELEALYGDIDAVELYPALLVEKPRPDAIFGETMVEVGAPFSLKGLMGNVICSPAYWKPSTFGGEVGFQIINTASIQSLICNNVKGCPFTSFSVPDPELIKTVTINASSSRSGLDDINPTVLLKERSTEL
Details: at 10 µM
RECORDED ENDPOINT: inhibition (%)
Answers are plain numbers, in %.

- SMILES REPRESENTATION: "CCCNC(=O)Cc1cc(-c2ccc(S(N)(=O)=O)cc2)n(-c2ccc(F)cc2)c1C"
  UNIT NAME: "%"
  inhibition: 62
- SMILES REPRESENTATION: "Cc1c(CC(=O)NC(C)C)cc(-c2ccc(S(C)(=O)=O)cc2)n1-c1ccc(F)cc1"
  UNIT NAME: "%"
  inhibition: 95
- SMILES REPRESENTATION: "CCCNC(=O)Cc1cc(-c2ccc(S(N)(=O)=O)cc2)n(-c2cccc(F)c2)c1C"
  UNIT NAME: "%"
  inhibition: 96

I have 3 molecules here; please give me inhibition for each one.
1. CCCNC(=O)Cc1cc(-c2ccc(S(C)(=O)=O)cc2)n(-c2ccc(F)cc2)c1C
2. CCCNC(=O)Cc1cc(-c2ccc(S(C)(=O)=O)cc2)n(-c2cccc(F)c2)c1C
3. CCOC(=O)Cc1cc(-c2ccc(S(N)(=O)=O)cc2)n(-c2ccc(F)cc2)c1C

**A:**
1: 65; 2: 43; 3: 82

Entry source: ChEMBL document CHEMBL3400072
